Reported EC50, human dopamine D2 long receptor (Homo sapiens, UniProt P14416).

Below are worked cases with known answers.
Input CCCN1CCOC(c2ccc(F)c(O)c2)C1 (racemic) [Example 23a + 23b (racemate)] . Output EC50: > 5 µM

Field EC50 (entry CCCN1CCOC(c2ccc(F)c(O)c2)C1 (single isomer, unassigned) [Example 23a] ) reads > 5 µM

According to the records, this compound CCCN1CCOC(c2ccc(O)c(C(N)=O)c2)C1 (centres unmarked) displays EC50 of ~10.5 µM

Noted for CCCN1CCOC(c2cc(O)cc(O)c2)C1 (racemic) [Example 15a + 15b (racemate)] : its EC50 reads > 10 µM

Please turn your attention to the following entry.
So for CCCN1CCOC(c2ccc(O)c(N)c2)C1 (centres unmarked) , the logged EC50 turned out to be > 100 µM
